Where do the numbers come from? From patent US20240018122A1.

SYSTEM TESTED: human ALK5 (Homo sapiens (Human), UniProt P36897)
Sequence (P36897 80-503 limits assumed): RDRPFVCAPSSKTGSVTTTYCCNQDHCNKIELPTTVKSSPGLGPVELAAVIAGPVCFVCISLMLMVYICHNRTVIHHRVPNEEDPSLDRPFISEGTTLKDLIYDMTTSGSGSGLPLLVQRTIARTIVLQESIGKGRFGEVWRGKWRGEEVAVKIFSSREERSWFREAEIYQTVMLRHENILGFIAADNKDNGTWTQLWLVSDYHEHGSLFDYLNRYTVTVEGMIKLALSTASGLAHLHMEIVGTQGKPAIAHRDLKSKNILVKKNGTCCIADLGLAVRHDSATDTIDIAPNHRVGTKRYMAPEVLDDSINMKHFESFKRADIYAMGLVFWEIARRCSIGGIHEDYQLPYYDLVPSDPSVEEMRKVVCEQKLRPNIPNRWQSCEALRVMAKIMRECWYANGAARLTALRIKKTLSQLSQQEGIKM
ASSAY NAME: ADP-GLO Kinases assay, inhibitory activity on ALK5
Format: biochemical
CONDITION SET: purified recombinant human ALK5 2.6 nM, TGFβ1 peptide substrate, 25° C, 150 min incubation, ADP-Glo detection; read-out: ALK5 IC50
pIC50: −log10 of the molar value.
TEST READOUT: pIC50

Reference set, count: 5
                                   compound  result
0  COC(=O)CCc1nnc(-c2cc(Cl)ccc2F)cc1Nc1ccnc(NC(=O)CCN2CCN(C)CC2)c1 [Example 187]  > 9.00
1  Cc1nnc(-c2cc(Cl)ccc2F)cc1Nc1ccnc2[nH]c(C(=O)NCCN3CCN(C)CC3)cc12 [Example 49]  > 9.00
2  CCN1CCN(CCOc2ccc3c(Nc4cnnc(-c5cc(Cl)ccc5F)c4)ccnc3c2)CC1 [Example 30]  > 9.00
3  CNCCN1CCN(CCC(=O)Nc2cc(Nc3cc(-c4cc(Cl)ccc4F)nnc3C)ccn2)CC1 [Example 104]  > 9.00
4  CN1CCN(CCOc2ccc3c(Nc4cnnc(-c5cc(Cl)ccc5F)c4)ccnc3c2)CC1 [Example 12]  > 9.00

// below: pIC50 requested for another compound
Exam item: Fill in the recorded pIC50 for this compound, with human ALK5 (Homo sapiens (Human), UniProt P36897) as test system: OCCN1CCN(CCOc2ccc3c(Nc4cnnc(-c5cc(Cl)ccc5F)c4)ccnc3c2)CC1 [Example 72]
Marked response: > 9.00

---

SYSTEM TESTED: UniProtKB P36897
ASSAY NAME: ADP-GLO Kinases assay, inhibitory activity on ALK5
Type: biochemical
CONDITION SET: purified recombinant human ALK5 2.6 nM, TGFβ1 peptide substrate, 25° C, 150 min incubation, ADP-Glo detection; read-out: ALK5 IC50
TEST READOUT: IC50

Reference set, count: 6
                                   molecule  test_readout     result
0  CN1CCN(CCNC(=O)c2c[nH]c3nccc(Nc4cnnc(-c5cc(Cl)ccc5F)c4)c23)CC1 [Example 21]          IC50  1 to 5 nM
1  CN1CC2(CCN(CC(=O)Nc3cc(Nc4cc(-c5cc(Cl)ccc5F)nnc4CO)ccn3)CC2)C1 [Example 179]          IC50     < 1 nM
2  Cc1nnc(-c2cc(Cl)ccc2F)cc1Nc1ccnc(NC(=O)CCN2CCN(CCC#N)CC2)c1 [Example 84]          IC50     < 1 nM
3  Cc1nnc(-c2cc(Cl)ccc2F)cc1Nc1ccnc(NC(=O)C2CCN(C)CC2)c1 [Example 88]          IC50  1 to 5 nM
4  CN1CCN(CCNC(=O)c2ccc3c(Nc4cnnc(-c5cc(Cl)ccc5F)c4)ccnc3c2)CC1 [Example 13]          IC50     < 1 nM
5  CS(=O)(=O)NCCN1CCN(CCOc2ccc3c(Nc4cnnc(-c5cc(Cl)ccc5F)c4)ccnc3c2)CC1 [Example 67]          IC50     < 1 nM

Exam item: Quick one: IC50 of CCOC1(CO)CN(CCC(=O)Nc2cc(Nc3cc(-c4cc(Cl)ccc4F)nnc3C)ccn2)C1 [Example 79] ?
Marked response: < 1 nM

Exam item: Quick one: IC50 of Nc1cc(Nc2cc(-c3cc(Cl)ccc3F)nnc2C(F)(F)F)ccn1 [Example 180] ?
Marked response: < 1 nM

---

SYSTEM TESTED: human ALK5 (Homo sapiens (Human))
ASSAY NAME: ADP-GLO Kinases assay, inhibitory activity on ALK5
Assay type: biochemical
CONDITION SET: purified recombinant human ALK5 2.6 nM, TGFβ1 peptide substrate, 25° C, 150 min incubation, ADP-Glo detection; read-out: ALK5 IC50
pIC50: −log10 of the molar value.
TEST READOUT: pIC50

>>> df
                                   compound                      system_tested  test_readout        result
0  COC(=O)N(C)CCN1CCN(CC(=O)Nc2cc(Nc3cc(-c4cc(Cl)ccc4F)nnc3C)ccn2)CC1  human ALK5 (Homo sapiens (Human))         pIC50        > 9.00
1  Cc1nnc(-c2cc(Cl)ccc2F)cc1Nc1ccnc2cc(OC(=O)N3CCC(N4CCC4)CC3)ccc12  human ALK5 (Homo sapiens (Human))         pIC50        > 9.00
2  CN1CCN(CCC(=O)Nc2cc(Nc3cnnc(-c4cc(Cl)ccc4F)c3)ccn2)CC1=O  human ALK5 (Homo sapiens (Human))         pIC50  8.30 to 9.00
3  N#CCCN1CCN(CCC(=O)Nc2cc(Nc3cc(-c4cc(Cl)ccc4F)nnc3C(F)(F)F)ccn2)CC1  human ALK5 (Homo sapiens (Human))         pIC50        > 9.00
4  CN1CCC(CCNC(=O)c2cc3c(Nc4cnnc(-c5cc(Cl)ccc5F)c4)ccnc3[nH]2)CC1  human ALK5 (Homo sapiens (Human))         pIC50        > 9.00

Exam item: Quick one: pIC50 of Cc1nnc(-c2cc(Cl)ccc2F)cc1Nc1ccnc(NC(=O)CCN2CCN(C)C(CO)C2)c1 (stereo not drawn) ?
Marked response: > 9.00

Exam item: Quick one: pIC50 of Cc1nnc(-c2cc(Cl)ccc2F)cc1Nc1ccnc(NC(=O)CCN2CCN(C)C(C(=O)O)C2)c1 (stereo not drawn) ?
Marked response: > 9.00

Exam item: Quick one: pIC50 of "CN1CCN(CCNC(=O)c2cc3c(Nc4cnnc(-c5cc(Cl)ccc5F)c4)ccnc3[nH]2)CC1" ?
Marked response: > 9.00

Exam item: Quick one: pIC50 of "CS(=O)(=O)N1CCCN(CCC(=O)Nc2cc(Nc3cnnc(-c4cc(Cl)ccc4F)c3)ccn2)C1" ?
Marked response: > 9.00

Exam item: Quick one: pIC50 of "COC(=O)[C@H]1CC[C@@H](c2nnc(-c3cc(Cl)ccc3F)cc2Nc2ccnc(NC(=O)CCN3CCN(C)CC3)c2)CC1" ?
Marked response: 8.30 to 9.00

Exam item: Quick one: pIC50 of Cc1nnc(-c2cc(Cl)ccc2F)cc1Nc1ccnc(NC(=O)CCN2CCN(C)C(C(=O)OC3CC3)C2)c1 (stereo not drawn) ?
Marked response: > 9.00

Exam item: Quick one: pIC50 of "CN1CC(NC(=O)c2cc3c(Nc4cnnc(-c5cc(Cl)ccc5F)c4)ccnc3cn2)C1" ?
Marked response: 8.00 to 8.30

---

# IC50 annotations
SYSTEM TESTED: human ALK5 (Homo sapiens (Human), UniProt P36897)
ASSAY NAME: ADP-GLO Kinases assay, inhibitory activity on ALK5
Assay type: biochemical

>>> df
                                   molecule  test_readout     result
0  Cc1nnc(-c2cc(Cl)ccc2F)cc1Nc1ccnc2cc(OC(=O)N3CCN(CCC4CCN(C)CC4)C(C(=O)OC4COC4)C3)ccc12 (stereo not shown)          IC50  1 to 5 nM
1  Cc1nnc(-c2cc(Cl)ccc2F)cc1Nc1ccnc2cc(OC(=O)N3C[C@H]4C[C@@H]3CN4C)ccc12          IC50     < 1 nM
2  CS(=O)(=O)CCN1CCN(C(=O)Oc2ccc3c(Nc4cnnc(-c5cc(Cl)ccc5F)c4)ccnc3c2)CC1          IC50  1 to 5 nM
3  CN1CC2(CCN(C(=O)Oc3ccc4c(Nc5cnnc(-c6cc(Cl)ccc6F)c5)ccnc4c3)C2)C1          IC50  1 to 5 nM
4  Cc1nnc(-c2cc(Cl)ccc2F)cc1Nc1ccnc2cc(OC(=O)N3C[C@@H]4C[C@H]3CN4C)ccc12          IC50     < 1 nM
5  CN1CCC(CCN(C)C(=O)Oc2ccc3c(Nc4cnnc(-c5cc(Cl)ccc5F)c4)ccnc3c2)CC1          IC50  1 to 5 nM

Exam item: Quick one: IC50 of "CN1CCN(CCN(C)C(=O)Oc2ccc3c(Nc4cnnc(-c5cc(Cl)ccc5F)c4)ccnc3c2)CC1" ?
Marked response: 1 to 5 nM

Exam item: Quick one: IC50 of "CN1CCC(CN2CCN(C(=O)Oc3ccc4c(Nc5cnnc(-c6cc(Cl)ccc6F)c5)ccnc4c3)CC2)CC1" ?
Marked response: 1 to 5 nM

Exam item: Quick one: IC50 of Cc1nnc(-c2cc(Cl)ccc2F)cc1Nc1ccnc2cc(OC(=O)N3CC4CC3CN4C)ccc12 (stereo not shown) ?
Marked response: < 1 nM

Exam item: Quick one: IC50 of "O=C(Oc1ccc2c(Nc3cnnc(-c4cc(Cl)ccc4F)c3)ccnc2c1)N1CCN(CCO)CC1" ?
Marked response: 1 to 5 nM

Exam item: Quick one: IC50 of "CN1CCN(C(=O)Oc2ccc3c(Nc4cnnc(-c5cc(Cl)ccc5F)c4)ccnc3c2)CC1" ?
Marked response: 1 to 5 nM

Exam item: Quick one: IC50 of "CN1CCC(N2CCN(C(=O)Oc3ccc4c(Nc5cnnc(-c6cc(Cl)ccc6F)c5)ccnc4c3)CC2)CC1" ?
Marked response: 1 to 5 nM

Exam item: Quick one: IC50 of "CN1CCN(CCC2CCN(C(=O)Oc3ccc4c(Nc5cnnc(-c6cc(Cl)ccc6F)c5)ccnc4c3)CC2)CC1" ?
Marked response: 1 to 5 nM
